- Experiment: Apparent permeability of the compound from basolateral to apical side across human Caco2 cells at 10 uM
- Assay type: ADME, cell-based
- Measurement context: Caco-2
Value type: Papp B→A at 10 µM (×10⁻⁶ cm/s)
Numbers only; they are read as ×10⁻⁶ cm/s.

Measured Papp B→A at 10 µM of Cc1ccc(C(=O)NC2CC2)cc1-n1cnc2ccc(N3CCN(C)CC3)cc2c1=O [AZD-6703] : 11

---

- Experiment: Half life in dog
- Type: ADME, organism-based, Canis lupus familiaris
- Measurement context: in vivo
Provide the reported half-life of each item.
Numbers only; they are read as h.

Measured half-life of Cc1ccc(C(=O)Nc2ccon2)cc1-n1cnc2ccc(N3CCN(C)CC3)cc2c1=O : 4

Measured half-life of Cc1ccc(C(=O)NC2CC2)cc1-n1cnc2ccc(N3CCN(C)CC3)cc2c1=O : 1.7

---

- Experiment: Lipophilicity, log D of the compound at pH 7.4
- Type: physicochemical
- Measurement context: buffer
Value type: logD

Measured logD of Cc1ccc(C(=O)NC2CC2)cc1-n1cnc2ccc(N3CCN(C)CC3)cc2c1=O [AZD-6703] : 1.6

---

- Experiment: in vitro
- Measurement context: human, hepatocytes
Provide the reported hepatocyte CLint of each item.
Numbers only; they are read as µL/min/1e6 cells.

Measured hepatocyte CLint of Cc1ccc(NC(=O)c2ccno2)cc1-n1cnc2ccc(N3CCN(C)CC3)cc2c1=O : 5

Measured hepatocyte CLint of Cc1ccc(NC(=O)c2ccccc2F)cc1-n1cnc2ccc(N3CCN(C)CC3)cc2c1=O : 7

Measured hepatocyte CLint of Cc1ccc(NC(=O)c2ccccc2)cc1-n1cnc2ccc(N3CCN(C)CC3)cc2c1=O : 6

Measured hepatocyte CLint of Cc1ccc(NC(=O)c2ccnc(N3CCOCC3)c2)cc1-n1cnc2ccc(N3CCN(C)CC3)cc2c1=O : 17

---

- Experiment: Oral bioavailability in rat
- Type: ADME, organism-based
- Measurement context: in vivo
Provide the reported bioavailability of each item.
Numbers only; they are read as %.

Measured bioavailability of Cc1ccc(C(=O)Nc2ccon2)cc1-n1cnc2ccc(N3CCN(C)CC3)cc2c1=O : 41

Measured bioavailability of Cc1ccc(NC(=O)c2ccc(C#N)cc2)cc1-n1cnc2ccc(N3CCN(C)CC3)cc2c1=O : 29

Measured bioavailability of Cc1ccc(C(=O)NC2CC2)cc1-n1cnc2ccc(N3CCN(C)CC3)cc2c1=O : 49

---

- Experiment: Aqueous solubility of the compound at pH 7.4
- Assay type: physicochemical
- Measurement context: aqueous medium
Value type: solubility (µM)
Numbers only; they are read as µM.

Measured solubility of Cc1ccc(NC(=O)c2cccc(N3CCOCC3)c2)cc1-n1cnc2ccc(N3CCN(C)CC3)cc2c1=O : 300

Measured solubility of Cc1ccc(NC(=O)c2ccnc(N3CCOCC3)c2)cc1-n1cnc2ccc(N3CCN(C)CC3)cc2c1=O : 300

Measured solubility of Cc1ccc(NC(=O)c2ccnc(N3CCOCC3)c2)cc1-n1c(C)nc2ccc(N3CCN(C)CC3)cc2c1=O : 300

---

- Experiment: Apparent permeability of the compound from apical to basolateral side across human Caco2 cells at 10 uM
- Format: ADME, cell-based
- Measurement context: Caco-2
Value type: Papp A→B at 10 µM (×10⁻⁶ cm/s)
Numbers only; they are read as ×10⁻⁶ cm/s.

Measured Papp A→B at 10 µM of Cc1ccc(C(=O)NC2CC2)cc1-n1cnc2ccc(N3CCN(C)CC3)cc2c1=O [AZD-6703] : 6
